study target: Bcl-2 protein (Recombinant Human Bcl-2 Protein) (Homo sapiens)
Construct: purchased Novus Biologicals NBP2-34889
Sequence (P10415 whole entry): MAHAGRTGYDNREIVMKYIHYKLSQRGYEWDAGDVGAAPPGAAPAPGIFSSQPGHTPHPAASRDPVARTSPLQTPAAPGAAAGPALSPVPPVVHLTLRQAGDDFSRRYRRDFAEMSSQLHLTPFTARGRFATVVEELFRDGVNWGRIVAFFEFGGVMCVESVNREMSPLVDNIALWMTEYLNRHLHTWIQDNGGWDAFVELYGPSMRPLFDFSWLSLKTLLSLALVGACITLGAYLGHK
protocol notes: AS-MS evaluation of binding of the Example 4 mixture library (1200 compounds/well) to Bcl-2, ASMS ratio (%)
condition set: AS-MS, Example 4 mixture library, Bcl-2, replicate n = 2
recorded endpoint: ASMS ratio (%) n = 2

compound=CCOc1cccc(-c2cc(CN3CCN(c4ccc(C(=O)NS(=O)(=O)CCC(F)(F)F)cc4)CC3)cc(C(F)(F)F)c2)c1 recorded_endpoint="ASMS ratio (%) n = 2" unit_spec=% readout_number=0.0
compound=CCOc1cccc(-c2csc(C(=O)N3CCN(c4ccc(C(=O)NS(=O)(=O)CCC(F)(F)F)cc4)CC3)c2)c1 recorded_endpoint="ASMS ratio (%) n = 2" unit_spec=% readout_number=0.0
compound=CCOc1cncc(-c2cc(C(=O)N3CCN(c4ccc(C(=O)NS(=O)(=O)c5ccc(NCCSc6ccccc6)c(C(F)(F)F)c5)nn4)CC3)cc(C(F)(F)F)c2)c1 recorded_endpoint="ASMS ratio (%) n = 2" unit_spec=% readout_number=7.8
compound=CCOc1cccc(-c2csc(CN3CCN(c4ccc(C(=O)NS(=O)(=O)CCC(F)(F)F)cc4)CC3)c2)c1 recorded_endpoint="ASMS ratio (%) n = 2" unit_spec=% readout_number=0.0
compound=CCOc1cncc(-c2cc(CN3CCN(c4ccc(C(=O)NS(=O)(=O)c5ccc(NCCSc6ccccc6)c(C(F)(F)F)c5)nn4)CC3)cc(OCC)c2)c1 recorded_endpoint="ASMS ratio (%) n = 2" unit_spec=% readout_number=0.0
compound="CCOc1cccc(-c2ccc(C(C)N3CCN(c4ccc(C(=O)NS(=O)(=O)c5ccc(NCCSc6ccccc6)c(C(F)(F)F)c5)cc4)CC3)c(F)c2)c1 (stereo not shown)" recorded_endpoint="ASMS ratio (%) n = 2" unit_spec=% readout_number=−7.5
compound=CCOc1cncc(-c2ccccc2CCC(=O)N2CCN(c3ccc(C(=O)NS(=O)(=O)CCC(F)(F)F)nn3)CC2)c1 recorded_endpoint="ASMS ratio (%) n = 2" unit_spec=% readout_number=0.0
compound=CCOc1cncc(-c2ccc(CN3CCN(c4ccc(C(=O)NS(=O)(=O)c5ccc(NCCSc6ccccc6)c(C(F)(F)F)c5)nn4)CC3)cc2C)c1 recorded_endpoint="ASMS ratio (%) n = 2" unit_spec=% readout_number=25.
compound=CCOc1cccc(-c2cnn(-c3cc(C(=O)N4CCN(c5ccc(C(=O)NS(=O)(=O)CCC(F)(F)F)nn5)CC4)cc(C(F)(F)F)c3)c2)c1 recorded_endpoint="ASMS ratio (%) n = 2" unit_spec=% readout_number=0.0
compound=CCOc1cncc(-c2cc(C(=O)N3CCN(c4ccc(C(=O)NS(=O)(=O)CCC(F)(F)F)cc4)CC3)cc(C(F)(F)F)c2)c1 recorded_endpoint="ASMS ratio (%) n = 2" unit_spec=% readout_number=0.0
compound=CCOc1cccc(-c2cc(CN3CCN(c4ccc(C(=O)NS(=O)(=O)c5ccc(NCCSc6ccccc6)c(C(F)(F)F)c5)nn4)CC3)cc(OCC)c2)c1 recorded_endpoint="ASMS ratio (%) n = 2" unit_spec=% readout_number=−8.8
compound=CCOc1cccc(-c2ccc(CN3CCN(c4ccc(C(=O)NS(=O)(=O)CCC(F)(F)F)nn4)CC3)cc2F)c1 recorded_endpoint="ASMS ratio (%) n = 2" unit_spec=% readout_number=0.0
compound=CCOc1cncc(-c2ccc(CN3CCN(c4ccc(C(=O)NS(=O)(=O)c5ccc(NCCSc6ccccc6)c(C(F)(F)F)c5)cc4)CC3)cc2F)c1 recorded_endpoint="ASMS ratio (%) n = 2" unit_spec=% readout_number=−7.4
compound=CCOc1cncc(-c2ccc(CN3CCN(c4ccc(C(=O)NS(=O)(=O)c5ccc(NCCSc6ccccc6)c(C(F)(F)F)c5)cc4)CC3)c(CC)c2)c1 recorded_endpoint="ASMS ratio (%) n = 2" unit_spec=% readout_number=0.0
compound=CCOc1cncc(-c2ccc(CN3CCN(c4ccc(C(=O)NS(=O)(=O)c5ccc(NCCSc6ccccc6)c(C(F)(F)F)c5)nn4)CC3)c(CC)c2)c1 recorded_endpoint="ASMS ratio (%) n = 2" unit_spec=% readout_number=19.7
compound=CCOc1cccc(C#Cc2cc(C(=O)N3CCN(c4ccc(C(=O)NS(=O)(=O)c5ccc(NCCSc6ccccc6)c(C(F)(F)F)c5)nn4)CC3)cc(C(F)(F)F)c2)c1 recorded_endpoint="ASMS ratio (%) n = 2" unit_spec=% readout_number=14.0
compound=CCOc1cccc(-c2cc(OC)c(CN3CCN(c4ccc(C(=O)NS(=O)(=O)CCC(F)(F)F)nn4)CC3)c(OC)c2)c1 recorded_endpoint="ASMS ratio (%) n = 2" unit_spec=% readout_number=0.0
compound=CCOc1cncc(-c2ccc(CN3CCN(c4ccc(C(=O)NS(=O)(=O)CCC(F)(F)F)nn4)CC3)cc2C)c1 recorded_endpoint="ASMS ratio (%) n = 2" unit_spec=% readout_number=0.0
compound=CCOc1cncc(-c2cc(OC)c(CN3CCN(c4ccc(C(=O)NS(=O)(=O)c5ccc(NCCSc6ccccc6)c(C(F)(F)F)c5)nn4)CC3)c(OC)c2)c1 recorded_endpoint="ASMS ratio (%) n = 2" unit_spec=% readout_number=0.0
compound=CCOc1cncc(-c2ccc(CN3CCN(c4ccc(C(=O)NS(=O)(=O)CCC(F)(F)F)nn4)CC3)c(OC)c2)c1 recorded_endpoint="ASMS ratio (%) n = 2" unit_spec=% readout_number=0.0
compound=CCOc1cncc(-c2ccc(CN3CCN(c4ccc(C(=O)NS(=O)(=O)c5ccc(NCCSc6ccccc6)c(C(F)(F)F)c5)cc4)CC3)cc2C)c1 recorded_endpoint="ASMS ratio (%) n = 2" unit_spec=% readout_number=7.5
compound=CCOc1cncc(C#Cc2cncc(C(=O)N3CCN(c4ccc(C(=O)NS(=O)(=O)c5ccc(NCCSc6ccccc6)c(C(F)(F)F)c5)cc4)CC3)c2)c1 recorded_endpoint="ASMS ratio (%) n = 2" unit_spec=% readout_number=0.0
compound=CCOc1cccc(-c2ccccc2CN2CCN(c3ccc(C(=O)NS(=O)(=O)CCC(F)(F)F)cc3)CC2)c1 recorded_endpoint="ASMS ratio (%) n = 2" unit_spec=% readout_number=0.1
compound=CCOc1cncc(-c2ccc(CN3CCN(c4ccc(C(=O)NS(=O)(=O)CCC(F)(F)F)cc4)CC3)cc2F)c1 recorded_endpoint="ASMS ratio (%) n = 2" unit_spec=% readout_number=−0.5
compound=CCOc1cccc(-c2cc(CN3CCN(c4ccc(C(=O)NS(=O)(=O)C(C)(C)C)nn4)CC3)cc(C(F)(F)F)c2)c1 recorded_endpoint="ASMS ratio (%) n = 2" unit_spec=% readout_number=−24.6
